Where do the numbers come from? From patent US20260042755A1.

Biological target: GPR6 (Homo sapiens, UniProt P46095)
Construct: expressed in transfected cells; host or cells: CHO cells
Sequence (P46095 whole entry): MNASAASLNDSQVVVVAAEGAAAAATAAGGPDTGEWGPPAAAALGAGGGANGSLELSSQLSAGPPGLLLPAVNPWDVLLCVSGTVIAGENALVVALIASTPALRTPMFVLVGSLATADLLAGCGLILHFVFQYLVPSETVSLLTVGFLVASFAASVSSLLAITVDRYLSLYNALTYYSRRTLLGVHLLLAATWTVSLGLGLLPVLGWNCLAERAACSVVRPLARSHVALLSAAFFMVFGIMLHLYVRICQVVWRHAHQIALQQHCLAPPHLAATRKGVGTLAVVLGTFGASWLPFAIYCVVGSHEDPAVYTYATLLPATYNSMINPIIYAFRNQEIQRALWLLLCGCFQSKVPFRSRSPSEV
Experiment: GPR6 antagonist functional cAMP assay (LANCE Ultra cAMP TR-FRET, CHO cells stably expressing GPR6)
Format: cell-based
Details: procedure of Example 24
propertyName: IC50

Some compounds with known IC50 results, for comparison:
{"columns": ["compound", "measuredResult"],
 "data": [
  ["CC(C)(O)CNc1cc2nc(-c3cnn(CF)c3)c(N3CCN(Cc4ccc(F)cc4F)CC3)nc2cn1 [Compound 757]", "100 to 1000 nM"],
  ["Cn1cc(-c2nc3cnc([C@H](O)C(C)(C)O)cc3nc2N2CCC(=Cc3ccc(F)cc3F)CC2)cn1 (single isomer, unassigned) [Compound 720]", "< 100 nM"],
  ["CO[C@@H](CO)c1cc2nc(N3CCC(Oc4ccc(F)cc4F)CC3)c(-c3cnn(C)c3)nc2cn1 (single isomer, unassigned) [Compound 640]", "100 to 1000 nM"]
]}

QUERY: For the compound CCn1cc(-c2nc3cnc([C@](C)(O)C(C)(C)O)cc3nc2N2CCC(Oc3ccc(F)cc3F)CC2)cn1 (single isomer, unassigned) [Compound 735] , give its reported IC50.
RESULT: 100 to 1000 nM
